Taken from PubChem BioAssay (NCATS).

# assay target: Cellular tumor antigen p53 (Homo sapiens)
# method notes: Primary qHTS for small molecule compounds that upregulate eGFP-tagged delta133p53alpha (in N-terminal) cells. (AID 2060322);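 also: cells pre-induced with doxycycline then dosed without doxycycline; 0% = DMSO vehicle and 100% = reference activator; nearly all actives have a fitted effect of over 75% in size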
# assay context: NCI-H358 eGFP-delta133p53alpha fluorescence, 24 h; stronger effect = higher value
Inconclusive results are not listed.
assay metric: activation (%)
All answers are understood in %, so give the number only.

compound	activation [%]
CCc1c[nH]c2ncnc(N3CC[C@](N)(CNC(=O)c4ccc(F)cc4F)C3)c12	22.3
CC(=O)O[C@@H]1C(=O)C(C)=C(CCC(C)CC(=O)O)[C@@]2(C)CCCC(C)(C)C12 (stereo partly drawn)	0.893

# next compound below
Find the measured activation: item `CCc1c2c(nc3ccc(OC(=O)N4CCC(N5CCCCC5)CC4)cc13)-c1cc3c(c(=O)n1C2)COC(=O)[C@]3(O)CC` , target or system Cellular tumor antigen p53 (Homo sapiens).
14.2

====

# assay target: Cellular tumor antigen p53 (Homo sapiens) (UniProt P04637)
# Sequence (P04637 whole entry, looked up): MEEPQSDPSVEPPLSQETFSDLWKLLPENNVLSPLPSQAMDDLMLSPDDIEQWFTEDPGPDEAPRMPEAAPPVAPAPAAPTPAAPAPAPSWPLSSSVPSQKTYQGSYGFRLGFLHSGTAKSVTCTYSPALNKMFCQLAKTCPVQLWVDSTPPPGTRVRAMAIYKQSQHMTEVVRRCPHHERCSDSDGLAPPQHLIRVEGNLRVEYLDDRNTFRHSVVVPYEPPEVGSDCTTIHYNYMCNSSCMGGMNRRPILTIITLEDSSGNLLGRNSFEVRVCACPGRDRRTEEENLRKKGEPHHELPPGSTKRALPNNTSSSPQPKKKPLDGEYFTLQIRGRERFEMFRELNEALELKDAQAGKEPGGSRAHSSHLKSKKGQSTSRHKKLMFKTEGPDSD
# method notes: Primary qHTS for small molecule compounds that upregulate eGFP-tagged delta133p53alpha (in N-terminal) cells. (AID 2060322);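 also: cells pre-induced with doxycycline then dosed without doxycycline; 0% = DMSO vehicle and 100% = reference activator; nearly all actives have a fitted effect of over 75% in size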
# assay context: NCI-H358 eGFP-delta133p53alpha fluorescence, 24 h; stronger effect = higher value
# Source text: Assay Development and Screening Technology National Center for Advancing Translational Sciences (NCATS), National Institute of Health (NIH), Rockville, Maryland Cellular senescence (CS) is one of the hallmarks of aging and age-related diseases. […] Here we report the development and validation of a cell-based quantitative high throughput screening (qHTS) assay in 1,536-well format. […]
Records with an inconclusive call do not appear.
assay metric: activation (%)
All answers are understood in %, so give the number only.

compound	unit string	assay result
CCCN1CCC=C(c2cc(-c3ccc(C)cc3)no2)C1	%	2.86

Can you share its activation? I mean this compound: CC(O)(CC(=O)O)CC(=O)OCc1ccc(O[C@@H]2O[C@H](CO)[C@@H](O)[C@H](O)[C@H]2O)cc1 (stereo not given in full)
-13.7

Can you share its activation? I mean this compound: `CNc1nc(Cc2ccccc2)nc2c1CCNC[C@@H]2C`
19

Can you share its activation? I mean this compound: CC1(CCOC2OC(CO)C(O)C(O)C2O)CCC23OC2(C1)C(O)CC1C(C)(C(=O)O)CCCC13C (stereo not given)
-13.7

Can you share its activation? I mean this compound: `OC[C@H]1O[C@@H](n2cnc3cncnc32)[C@H](O)[C@@H]1O`
-14.1

Can you share its activation? I mean this compound: `CCCCCN=C(N)N/N=C/c1c[nH]c2ccc(OC)cc12`
9.6

====

# method notes: BET inhibitor-based combinations targeting novel dependencies in MECOM-rearranged (r) AML: MV-4-11 cell line (AID 2202233); also: nearly all actives have a fitted effect of over 45% in size; also: potency is read from the fitted curve at half-maximal effect
# assay context: MV-4-11 AML viability, CellTiter-Glo luminescence, 48 h; series mostly up to 46 µM
Records with an inconclusive call do not appear. Activity calls are given as the source filed them. Calls follow the shape of the dose curve; as a rule, active = well fitted inhibition curve with a large enough effect; inconclusive = small, poorly fitted or top-dose-only effect; inactive = no such curve, though single readings can be large or run the other way.
assay metric: Potency

Field: example entries. Status: answers known.
molecule	Potency
CN(C)C1CCN(C(=O)c2ccc(NC(=O)Nc3ccc(-c4nc(N5CCOCC5)nc(N5CCOCC5)n4)cc3)cc2)CC1	0.118 µM (active)
COc1cc(OC)c(C(=O)CCCN2CCCC2)c(OC)c1	inactive
CC(C)C[C@H](NC(=O)CNC(=O)c1cc(Cl)ccc1Cl)B(O)O	0.148 µM (active)
Cc1ccc(S(=O)(=O)NC(=O)NN2CC3CCCC3C2)cc1 (configuration not stated)	inactive
O=C1c2c(O)cc(O)cc2OC(c2ccc(O)c(O)c2)C1O (configuration not stated)	18.6 µM (active)

Can you share its Potency? I mean this molecule: `CC(C)(C)c1cc(NC(=O)Nc2ccc(-c3cn4c(n3)sc3cc(OCCN5CCOCC5)ccc34)cc2)no1`
0.003 µM (active)

Can you share its Potency? I mean this molecule: `CNC(=O)c1c(F)cccc1Nc1nc(Nc2cc3c(cc2OC)CCN3C(=O)CN(C)C)nc2[nH]ccc12`
7.42 µM (active)

Can you share its Potency? I mean this molecule: `NC(=O)c1cccc(-c2cc(Nc3ccc(OC(F)(F)F)cc3)ncn2)c1`
16.6 µM (active)

Can you share its Potency? I mean this molecule: `COc1cc2ncn(-c3cc(OCc4ccccc4S(C)(=O)=O)c(C#N)s3)c2cc1OC`
inactive

Can you share its Potency? I mean this molecule: `NCCCCCC(=O)O`
inactive

Can you share its Potency? I mean this molecule: `Cc1cccc(CC(=O)N2CCc3c2ccc(-c2cn(C)c4ncnc(N)c24)c3F)n1`
5.9 µM (active)

Can you share its Potency? I mean this molecule: `CCCCc1oc2ccccc2c1C(=O)c1cc(I)c(OCCN(CC)CC)c(I)c1`
18.6 µM (active)

Can you share its Potency? I mean this molecule: `COC(=O)Nc1ccc(-c2nc(N3CCOCC3)c3cnn(C4CCN(C(=O)OC)CC4)c3n2)cc1`
1.18 µM (active)

Can you share its Potency? I mean this molecule: `N#Cc1ccnc(N2C(=O)CC[C@H]2C(=O)N(c2cncc(F)c2)[C@H](C(=O)NC2CC(F)(F)C2)c2ccccc2Cl)c1`
inactive

Can you share its Potency? I mean this molecule: `NC(=O)c1ccc2[nH]ccc2c1`
inactive
